# EXPERIMENT_DESCRIPTION: Dog PK study: zoledronic acid in serum after IV or oral capsule dosing, enteric or non-enteric coated, with or without excess coformer (LC/MS/MS)
# Assay type: in vivo, Beagle dogs
# TEST_CONTEXT: beagle, iv, 0.12 mg/kg, Leg 38, 0.12 mg/kg IV, saline solution, 0 h, read-out: Average serum concentration of 4 dogs
# From the text: This can be attributed to the fact that both animals have historically been used in the safety evaluation and PK screening studies and are recommended by appropriate regulatory agencies. […] Additional tests included ID administration in rats and administration of enteric coated capsules in dogs. USA. Some animals have surgical catheters (jugular vein and intraduodenum) were implanted to the animals prior to the studies. […]
PROPERTY_NAME: concentration at 0 h (ng/mL)

1) O=P(O)(O)C(O)(Cn1ccnc1)P(=O)(O)O [Zoledronic acid] | 0

---

# EXPERIMENT_DESCRIPTION: Rat PK study: zoledronic acid in plasma after IV, oral gavage or intraduodenal dosing (LC/MS/MS)
# Assay type: in vivo
# TEST_CONTEXT: male, Sprague-Dawley, iv, 0.5 mg/kg, read-out: Average plasma concentration of 3 rats
PROPERTY_NAME: concentration at 0.25 hour (ng/mL)

1. O=P(O)(O)C(O)(Cn1ccnc1)P(=O)(O)O | 1950

---

# EXPERIMENT_DESCRIPTION: Dog PK study: zoledronic acid in serum after IV or oral capsule dosing, enteric or non-enteric coated, with or without excess coformer (LC/MS/MS)
# Type: in vivo, Beagle dogs
# TEST_CONTEXT: beagle, iv, 0.12 mg/kg, Leg 38, 0.12 mg/kg IV, saline solution, 2 h, read-out: Average serum concentration of 4 dogs
PROPERTY_NAME: concentration at 2 h (ng/mL)

1) O=P(O)(O)C(O)(Cn1ccnc1)P(=O)(O)O [Zoledronic acid] | 55.7

---

# EXPERIMENT_DESCRIPTION: Dog PK study: zoledronic acid in serum after IV or oral capsule dosing, enteric or non-enteric coated, with or without excess coformer (LC/MS/MS)
# Format: in vivo, Beagle dogs
# TEST_CONTEXT: beagle, po, 56 mg, Leg 7, 56.0 mg, enteric coated capsule, PO, 0.25 h, read-out: Average serum concentration of 5 dogs
# Text: This can be attributed to the fact that both animals have historically been used in the safety evaluation and PK screening studies and are recommended by appropriate regulatory agencies. […] Additional tests included ID administration in rats and administration of enteric coated capsules in dogs. USA. Some animals have surgical catheters (jugular vein and intraduodenum) were implanted to the animals prior to the studies. […]
PROPERTY_NAME: concentration at 0.25 h

1. O=P(O)(O)C(O)(Cn1ccnc1)P(=O)(O)O [Zoledronic acid monohydrate] | 0 ng/mL

---

# EXPERIMENT_DESCRIPTION: Dog PK study: zoledronic acid in serum after IV or oral capsule dosing, enteric or non-enteric coated, with or without excess coformer (LC/MS/MS)
# Type: in vivo, Beagle dogs
# TEST_CONTEXT: beagle, po, 56 mg, Leg 7, 56.0 mg, enteric coated capsule, PO, 0 h, read-out: Average serum concentration of 5 dogs
PROPERTY_NAME: concentration at 0 h (ng/mL)

1) O=P(O)(O)C(O)(Cn1ccnc1)P(=O)(O)O [Zoledronic acid monohydrate] | 0

---

# EXPERIMENT_DESCRIPTION: Dog PK study: zoledronic acid in serum after IV or oral capsule dosing, enteric or non-enteric coated, with or without excess coformer (LC/MS/MS)
# Format: in vivo, Beagle dogs
# TEST_CONTEXT: beagle, po, Leg 19, 61.3 mg with 322.9 mg DL-lysine monohydrate, gelatin capsule, PO, 5 min, read-out: Average serum concentration of 5 dogs
PROPERTY_NAME: concentration at 5 min

1) O=P(O)(O)C(O)(Cn1ccnc1)P(=O)(O)O | 34.1 ng/mL
